Taken from ChEMBL document CHEMBL1909046.

Below, each of the molecules is paired with its reported pIC50 value.
assay: DRUGMATRIX: Phosphodiesterase PDE3 enzyme inhibition (substrate: [3H]cAMP + cAMP); assay type: tissue-based, Homo sapiens; conditions: platelet; Not Active = under 50% inhibition at 10 µM; read-out: IC50
pIC50: −log10 of the molar value.

{"input_smiles": "O=C1CCc2cc(OCCCCc3nnnn3C3CCCCC3)ccc2N1", "pIC50": 6.57}
{"input_smiles": "Oc1c(Cl)cc(Cl)cc1Sc1cc(Cl)cc(Cl)c1O", "pIC50": 5.56}

---

biological target: D(1A) dopamine receptor (Homo sapiens); assay: DRUGMATRIX: Dopamine D1 radioligand binding (ligand: [3H] SCH-23390); type: cell membranes, CHO, Membrane; conditions: cho; Not Active = under 50% inhibition at 10 µM
Sequence (P21728 whole entry): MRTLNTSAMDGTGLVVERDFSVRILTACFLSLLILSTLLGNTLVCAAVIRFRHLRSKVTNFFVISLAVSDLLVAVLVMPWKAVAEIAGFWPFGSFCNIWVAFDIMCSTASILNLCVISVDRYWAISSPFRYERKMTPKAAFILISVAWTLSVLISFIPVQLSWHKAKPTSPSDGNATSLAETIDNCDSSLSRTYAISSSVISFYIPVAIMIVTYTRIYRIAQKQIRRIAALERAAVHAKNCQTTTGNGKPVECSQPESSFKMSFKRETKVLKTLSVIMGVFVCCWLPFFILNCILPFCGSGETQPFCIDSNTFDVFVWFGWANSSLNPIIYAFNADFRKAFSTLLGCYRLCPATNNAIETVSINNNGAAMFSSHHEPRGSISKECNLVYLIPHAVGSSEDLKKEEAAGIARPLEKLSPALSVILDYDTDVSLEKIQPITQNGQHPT
endpoint: IC50

{"compound": "CC1(C)[C@@H](O[C@H]2O[C@H](C(=O)O)[C@@H](O)[C@H](O)[C@H]2O[C@@H]2O[C@H](C(=O)O)[C@@H](O)[C@H](O)[C@H]2O)CC[C@]2(C)[C@H]3C(=O)C=C4[C@@H]5C[C@@](C)(C(=O)O)CC[C@]5(C)CC[C@@]4(C)[C@]3(C)CC[C@@H]12 [GLYCYRRHIZIN]", "endpoint": "IC50", "experimental_result": "Not Active"}
{"compound": "NS(=O)(=O)c1cc2c(cc1Cl)NCNS2(=O)=O [HYDROCHLOROTHIAZIDE]", "endpoint": "IC50", "experimental_result": "Not Active"}
{"compound": "Nc1nnc(-c2cccc(Cl)c2Cl)c(N)n1 [LAMOTRIGINE]", "endpoint": "IC50", "experimental_result": "Not Active"}
{"compound": "COC1=CC(=O)C[C@@H](C)[C@]12Oc1c(Cl)c(OC)cc(OC)c1C2=O [GRISEOFULVIN]", "endpoint": "IC50", "experimental_result": "Not Active"}
{"compound": "Clc1ccc(C(c2ccccc2Cl)C(Cl)Cl)cc1 (configuration not stated) [MITOTANE]", "endpoint": "IC50", "experimental_result": "Not Active"}
{"compound": "COc1c(C)c2c(c(O)c1C/C=C(\\C)CCC(=O)OCCN1CCOCC1)C(=O)OC2 [MYCOPHENOLATE MOFETIL]", "endpoint": "IC50", "experimental_result": "Not Active"}
{"compound": "N=C(N)NCCCCNC(=N)N.O=S(=O)(O)O [ARCAINE SULFATE]", "endpoint": "IC50", "experimental_result": "Not Active"}
{"compound": "COc1ccc(CN(CCN(C)C)c2ccccn2)cc1 [PYRILAMINE]", "endpoint": "IC50", "experimental_result": "Not Active"}
{"compound": "CC1=C(/C=C/C(C)=C/C=C/C(C)=C\\C(=O)O)C(C)(C)CCC1 [ISOTRETINOIN]", "endpoint": "IC50", "experimental_result": "Not Active"}
{"compound": "CC(C)(S)[C@@H](N)C(=O)O [PENICILLAMINE]", "endpoint": "IC50", "experimental_result": "Not Active"}
{"compound": "CC(=O)S[C@@H]1CC2=CC(=O)CC[C@]2(C)[C@H]2CC[C@@]3(C)[C@@H](CC[C@@]34CCC(=O)O4)[C@H]12 [SPIRONOLACTONE]", "endpoint": "IC50", "experimental_result": "Not Active"}
{"compound": "CC=CC(=O)N(CC)c1ccccc1C", "endpoint": "IC50", "experimental_result": "Not Active"}
{"compound": "CC(C)[C@H](N)C(=O)OCCOCn1cnc2c(=O)nc(N)[nH]c21 [VALACYCLOVIR]", "endpoint": "IC50", "experimental_result": "Not Active"}
{"compound": "CCCCOC(=O)c1ccc(N)cc1 [BUTAMBEN]", "endpoint": "IC50", "experimental_result": "Not Active"}
{"compound": "CCC1(c2ccccc2)C(=O)NCNC1=O [PRIMIDONE]", "endpoint": "IC50", "experimental_result": "Not Active"}
{"compound": "CC(=O)CCCCn1c(=O)c2c(ncn2C)n(C)c1=O [PENTOXIFYLLINE]", "endpoint": "IC50", "experimental_result": "Not Active"}
{"compound": "CC(=O)O[C@]1(C(C)=O)CC[C@H]2[C@@H]3C=C(Cl)C4=CC(=O)CC[C@]4(C)[C@H]3CC[C@@]21C [CHLORMADINONE ACETATE]", "endpoint": "IC50", "experimental_result": "Not Active"}
